cell viability values by entry
test system: K562; assay: cell viability relative to vehicle control; higher = less cytotoxic; details: 10 µM; SRSF2 genotype: SRSF2 wt/wt;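 note: after 48 h exposure read by CellTiter-Glo luminescence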
Structures can show the parent of a compound that is named as a salt.
property-measured: cell viability (%)

compound	unit-text	value-measured
COC(=O)[C@@]1(C)CC[C@]2(C(=O)O)CC[C@]3(C)C(=CC[C@@H]4[C@@]5(C)C[C@H](O)[C@H](O[C@@H]6OC[C@@H](O[C@@H]7O[C@H](CO)[C@@H](O)[C@H](O)[C@H]7O)[C@H](O)[C@H]6O)[C@@](C)(CO)[C@@H]5CC[C@]43C)[C@@H]2C1 [Esculentoside A]	%	105
Nc1ccc(S(=O)(=O)Nc2ncccn2)cc1	%	108
Clc1ccc(COC(Cn2ccnc2)c2ccc(Cl)cc2Cl)cc1 (stereo not given) [Econazole nitrate (Spectazole)]	%	70.1
O=C(Nc1cc(Cl)cc2c1[nH]c1cnccc12)c1cccnc1	%	88.8
C[C@@H](O)[C@H]1C(=O)N2C(C(=O)O)=C(S[C@@H]3CN[C@H](CNS(N)(=O)=O)C3)[C@H](C)[C@H]12 [Doripenem Hydrate]	%	94.1
Cc1cnc(-c2ccccc2C(C)C)nc1NCc1ccc(-n2ccnn2)cc1	%	74.5
CO/N=C(\C(=O)N[C@@H]1C(=O)N2C(C(=O)O)=C(CSC(=O)c3ccco3)CS[C@H]12)c1csc(N)n1 [Ceftiofur hydrochloride]	%	83.7
CNCC[C@H](Oc1cccc2ccccc12)c1cccs1 [Duloxetine HCl (Cymbalta)]	%	54.7
NC(=O)c1ccc[n+]([O-])c1 [Nicotinamide N-oxide]	%	111
Cc1onc(-c2c(F)cccc2Cl)c1C(=O)N[C@@H]1C(=O)N2[C@@H]1SC(C)(C)[C@@H]2C(=O)O [Flucloxacillin sodium]	%	94.3

----------
tested on: OCI-AML2; assay: cell viability relative to vehicle control; higher = less cytotoxic; settings: 10 µM; SRSF2 genotype: P95H/wt
Where a name gives a salt, the structure may show the parent alone.

molecule	unit-text	cell viability
OC(Cn1cncn1)(Cn1cncn1)c1ccc(F)cc1F	%	96.9
CC(C)=CCC/C(C)=C\CO	%	103
O=C(O)C1=CO[C@@H](O[C@@H]2O[C@H](CO)[C@@H](O)[C@H](O)[C@H]2O)[C@@H]2C(CO)=CC[C@H]12	%	90.8
CC1(C)S[C@@H]2[C@H](NC(=O)C(C(=O)O)c3ccccc3)C(=O)N2[C@H]1C(=O)O (stereo partly drawn) [Carbenicillin disodium]	%	95
Cc1ccc(NC(=O)c2ccc(CN3CC[C@H](N(C)C)C3)c(C(F)(F)F)c2)cc1Nc1nccc(-c2cncnc2)n1	%	23.6
C[C@H]1COC2=C1C(=O)C(=O)c1c2ccc2c1CCCC2(C)C	%	42.7
CCCCCCCCCCCCCCCCOc1nc2ccc(C)cc2c(=O)o1	%	107
COc1ccc(F)c(F)c1C(=O)c1cnc(NC2CCN(S(C)(=O)=O)CC2)nc1N	%	3.74
C[C@@H]1O[C@@H](O[C@H]2[C@H](O[C@H]3CC[C@@]4(C)[C@@H](CC[C@]5(C)[C@@H]4CC=C4[C@@H]6CC(C)(C)CC[C@]6(C(=O)O)CC[C@]45C)[C@]3(C)CO)OC[C@H](O[C@@H]3O[C@H](CO)[C@@H](O)[C@H](O)[C@H]3O)[C@@H]2O)[C@H](O)[C@H](O)[C@H]1O	%	0.5
CC(=O)OCC1=C(C(=O)O)N2C(=O)[C@@H](NC(=O)CSc3ccncc3)[C@H]2SC1 [cephapirin sodium]	%	117
CCOC(=O)[C@H](CCc1ccccc1)N[C@H]1CCc2ccccc2N(CC(=O)O)C1=O [Benazepril hydrochloride]	%	93.3
COc1ccc2c(O[C@@H]3C[C@H]4C(=O)N[C@]5(C(=O)NS(=O)(=O)C6CC6)C[C@H]5/C=C\CCCCN(C)C(=O)[C@@H]4C3)cc(-c3nc(C(C)C)cs3)nc2c1C	%	55.2
COc1ccc(/C=C/C(=O)C2(C(=O)/C=C/c3ccc(OC)c(OC)c3)CCCCC2)cc1OC	%	0.35
CC1CCc2c(N3CCC(O)CC3)c(F)cc3c(=O)c(C(=O)O)cn1c23 (stereo not drawn)	%	114
Nc1nc(NCCNc2ncc(-n3ccnc3)c(-c3ccc(Cl)cc3Cl)n2)ccc1[N+](=O)[O-]	%	131
OC[C@H]1O[C@@H](O[C@@H]2OC=C[C@H]3[C@H](O)[C@@H]4O[C@]4(CO)[C@@H]23)[C@H](O)[C@@H](O)[C@@H]1O	%	96.7
CC(=O)OC(CC(C)C1=C2CC(O)C3C4(C)CCC(=O)C(C)(C)C4CCC3(C)C2(C)CC1)C1OC1(C)C (stereo not drawn) [Alisol B Acetate]	%	64.1
O=c1c2ccccc2nc2n1CCc1c-2[nH]c2ccccc12 [Rutaecarpine (Rutecarpine)]	%	95.5
COc1ccc([C@@H]2CC(=O)c3c(O)cc(O[C@@H]4O[C@H](CO)[C@@H](O)[C@H](O)[C@H]4O[C@@H]4O[C@@H](C)[C@H](O)[C@@H](O)[C@H]4O)cc3O2)cc1O	%	116
C[C@@]1(F)[C@H](O)[C@@H](CO)O[C@H]1n1ccc(=O)[nH]c1=O	%	86.6
O=C(/C=C/c1ccc2ccccc2n1)c1ccncc1	%	0.31
C#C[C@]1(O)CC[C@H]2[C@@H]3CCc4cc(OC5CCCC5)ccc4[C@H]3CC[C@@]21C	%	49.7
Nc1ncnc2c1c(-c1cccc(OCc3ccccc3)c1)cn2C1CC(CN2CCCC2)C1 (stereo not drawn)	%	35.1
